System: Saccharomyces cerevisiae;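 note: PSI is a weighted mean of sequencing reads over stability bins, variants kept only with over 10 reads, mCherry proximal and sfGFP distal, peptide attached via GGGS linker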
Assay: protein stability index of tFT-peptide fusion (C-terminal peptide) (PSI (0-1 scale)); higher = more stable (slower turnover)
Conditions: genetic background: wild type; temperature: 30 C
Give measured protein stability index for each item. Keep answers brief.
Numbers only.

sequence_data=APFRVALPGVCG observed_property="protein stability index" observed_value=0.623

Count: 6. Required value per item: protein stability index.
1. VGCSGVYIWGNL
2. GGKEEGAGRRGV
3. VRGAVGGWRLVG
4. MWVRKPNGNGSF
5. DDGRVSLGEQSG
6. TTPRAILPLSSI

[0.707, 0.69, 0.228, 0.688, 0.673, 0.67]
